compounds and their reported activity (max response)
experiment: Cellular viability qHTS for adrenocortical cancer (ACC) cell line SW-13 (AID 1963989); conditions: SW-13 ACC cells viability, CellTiter-Glo, 48 h; stronger effect = lower value;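 also: cells grown in serum-free medium with ITS supplement; % is scaled to controls: 0 for no effect and ±100 for the full control effect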
Records with an inconclusive call do not appear.
Expressed in %, but write only the number.

Solved cases (4 shown):
CC(C)(C)C1CCC(CC2=C(O)c3ccccc3C(=O)C2=O)CC1 (stereo not given); 12.3
Cc1cc(NS(=O)(=O)c2ccc(N)cc2)nc(C)n1; 9.61
Cc1cnc(-c2cnc(NCCNc3ccc(C#N)cn3)nc2-c2ccc(Cl)cc2Cl)[nH]1; 4.03
CC(=O)O[C@H]1CC[C@@]2(C)C(=CC[C@@H]3[C@@H]2CC[C@]2(C)C(C(C)=O)=CC[C@@H]32)C1; 8.77

Then this compound:
Consider the compound "CCN(CC)CCNC(=O)c1ccc(NC(C)=O)cc1" and give its recorded activity (max response).
-7.72

Every entry's value here was drawn from PubChem BioAssay (NCATS).
